ASSAY OVERVIEW: Anti-lipid peroxidation activity ferric chloride-induced lipid peroxidation using egg yolk homogenate at 40 ug/ml by TBARS assay
Type: physicochemical
CONDITION: tissue homogenate
PROPERTY: Activity

smiles_data=O=[N+]([O-])c1ccc(/C=N/Nc2cc(N/N=C/c3ccc([N+](=O)[O-])cc3)[nH]n2)cc1 reported_result="Not Active"
smiles_data=Oc1ccccc1-c1nnc(Cc2nnc(-c3ccccc3O)o2)o1 reported_result=48.6%
smiles_data=Clc1ccc(/C=N/Nc2cc(N/N=C/c3ccc(Cl)cc3)on2)cc1 reported_result="Not Active"
